Run Description: Clearance in Sprague-Dawley rat at 1 mg/kg, iv by LC-MS/MS analysis
Assay type: ADME, organism-based
Test Settings: in vivo
Readout Label: clearance (mL/min/kg)
Kindly answer with a numeric value in mL/min/kg, unit omitted.

INPUT: Complete the entry with clearance for O=C(Nc1cc(C(F)(F)F)cc(C(F)(F)F)c1)N[C@@H](Cc1ccccc1)Cn1c[n+](Cc2ccc3ccccc3c2)c2ccccc21.[Br-]
OUTPUT: 15.2

###

Recorded measurements of IC50, one per entry
Assayed System: Mitogen-activated protein kinase 1 (Homo sapiens)
Sequence (P28482 whole entry): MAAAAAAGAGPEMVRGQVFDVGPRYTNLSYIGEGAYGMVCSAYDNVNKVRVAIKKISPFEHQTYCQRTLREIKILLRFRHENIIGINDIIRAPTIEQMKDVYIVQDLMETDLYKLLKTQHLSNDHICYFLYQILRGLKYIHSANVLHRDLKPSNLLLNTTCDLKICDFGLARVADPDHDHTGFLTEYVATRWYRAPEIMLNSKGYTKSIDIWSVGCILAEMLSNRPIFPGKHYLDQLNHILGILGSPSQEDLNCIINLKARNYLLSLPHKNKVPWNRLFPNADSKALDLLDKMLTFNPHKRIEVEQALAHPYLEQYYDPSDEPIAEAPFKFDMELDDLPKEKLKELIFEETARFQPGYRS
Run Description: Inhibition of ERK2 (unknown origin) incubated for 60 mins by luminescence based ADP-Glo kinase assay

Solved cases (3 shown):
O=C(Nc1cc(C(F)(F)F)cc(C(F)(F)F)c1)N[C@@H](Cc1ccccc1)Cn1cc[n+](Cc2ccccc2)c1 ... 0.272 µM
O=C(Nc1cc(C(F)(F)F)cc(C(F)(F)F)c1)N[C@@H](Cc1ccccc1)Cn1c[n+](Cc2ccc(Cl)cc2)c2ccccc21 ... 0.319 µM
O=C(Nc1cc(C(F)(F)F)cc(C(F)(F)F)c1)N[C@@H](Cc1ccccc1)Cn1c[n+](Cc2ccccc2F)c2ccccc21 ... 0.217 µM

INPUT: Complete the entry with IC50 for O=C(Nc1cc(C(F)(F)F)cc(C(F)(F)F)c1)N[C@@H](Cc1ccccc1)Cn1c[n+](Cc2c(Cl)cccc2Cl)c2ccccc21
OUTPUT: 0.195 µM

INPUT: Complete the entry with IC50 for O=C(Nc1cc(C(F)(F)F)cc(C(F)(F)F)c1)N[C@@H](Cc1ccccc1)Cn1c[n+](Cc2ccc(Br)cc2)c2ccccc21
OUTPUT: 0.338 µM

INPUT: Complete the entry with IC50 for O=C(Nc1ccc(C(F)(F)F)cc1)N[C@@H](Cc1ccccc1)Cn1c[n+](Cc2ccc3ccccc3c2)c2ccccc21
OUTPUT: 0.217 µM

INPUT: Complete the entry with IC50 for O=C(Nc1cc(C(F)(F)F)cc(C(F)(F)F)c1)N[C@@H](Cc1ccccc1)Cn1c[n+](Cc2ccccc2)c2ccccc21
OUTPUT: 0.206 µM

INPUT: Complete the entry with IC50 for Cc1ccccc1C[n+]1cn(C[C@H](Cc2ccccc2)NC(=O)Nc2cc(C(F)(F)F)cc(C(F)(F)F)c2)c2ccccc21
OUTPUT: 0.123 µM

INPUT: Complete the entry with IC50 for O=C(Nc1cc(C(F)(F)F)cc(C(F)(F)F)c1)N[C@@H](Cc1ccccc1)Cn1c[n+](Cc2ccc3ccccc3c2)c2ccccc21.[Br-]
OUTPUT: 0.0979 µM

INPUT: Complete the entry with IC50 for O=C(N[C@@H](Cc1ccccc1)Cn1c[n+](Cc2cccc3ccccc23)c2ccccc21)c1ccccc1
OUTPUT: > 10 µM

INPUT: Complete the entry with IC50 for Cc1ccc(C[n+]2cn(C[C@H](Cc3ccccc3)NC(=O)Nc3cc(C(F)(F)F)cc(C(F)(F)F)c3)c3ccccc32)cc1
OUTPUT: 0.315 µM
